Listing: viability, T/C of selected compounds
# Tested on: 695427-040-R-J1-PDC complex spheroid viability;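 also: viability read after seven days of drug exposure; 100% = DMSO vehicle control viability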
# protocol.summary: Anticancer human tumor 695427-040-R-J1-PDC patient-derived colon adenocarcinoma cell line growth inhibition [RAS]
# test.conditions: second compound 0.03 µM; first compound 0.00949 µM; stronger effect = lower value
Give your result in % as a bare value.

[
  {
    "compound": "CCc1c2c(nc3ccc(O)cc13)-c1cc3c(c(=O)n1C2)COC(=O)[C@]3(O)CC + CCn1c(-c2cccnc2C(C)OC)c2c3cc(ccc31)N1CCOC(CC(NC(=O)C(C(C)C)N(C)C(=O)C3(F)CCN(C(=O)C#CC(C)(C)N(C)C)CC3)C(=O)N3CCCC(N3)C(=O)OCC(C)(C)C2)C1",
    "reading.unit": "%",
    "experimental.result": 80.1
  },
  {
    "compound": "CC1(C)CCC(Nc2ncc(C(F)(F)F)c(-c3c[nH]c4c(P(C)(C)=O)c(C#N)ccc34)n2)CN1 (centres undefined) + CCn1c(-c2cc(N3CCN(C)CC3)cnc2C(C)OC)c2c3cc(ccc31)-c1csc(n1)CC(NC(=O)C1CC1C)C(=O)N1CCCC(N1)C(=O)OCC(C)(C)C2",
    "reading.unit": "%",
    "experimental.result": 61
  },
  {
    "compound": "CC1(C)CCC(Nc2ncc(C(F)(F)F)c(-c3c[nH]c4c(P(C)(C)=O)c(C#N)ccc34)n2)CN1 (centres undefined) + CCn1c(-c2cccnc2C(C)OC)c2c3cc(ccc31)N1CCOC(CC(NC(=O)C(C(C)C)N(C)C(=O)C3(F)CCN(C(=O)C#CC(C)(C)N(C)C)CC3)C(=O)N3CCCC(N3)C(=O)OCC(C)(C)C2)C1",
    "reading.unit": "%",
    "experimental.result": 89.9
  }
]

The record that follows has no viability, T/C shown yet.
Exam item: Record CCc1c2c(nc3ccc(O)cc13)-c1cc3c(c(=O)n1C2)COC(=O)[C@]3(O)CC + CCn1c(-c2cc(N3CCN(C)CC3)cnc2C(C)OC)c2c3cc(ccc31)-c1csc(n1)CC(NC(=O)C1CC1C)C(=O)N1CCCC(N1)C(=O)OCC(C)(C)C2 : what is its viability, T/C with 695427-040-R-J1-PDC complex spheroid viability?
Marked response: 55.3
